Source of measurements: ChEMBL document CHEMBL1961873

Measured inhibition, listed per entry for reference.
# subjectOfTest: Epidermal growth factor receptor (Homo sapiens) (UniProt P00533)
# Sequence (P00533 whole entry): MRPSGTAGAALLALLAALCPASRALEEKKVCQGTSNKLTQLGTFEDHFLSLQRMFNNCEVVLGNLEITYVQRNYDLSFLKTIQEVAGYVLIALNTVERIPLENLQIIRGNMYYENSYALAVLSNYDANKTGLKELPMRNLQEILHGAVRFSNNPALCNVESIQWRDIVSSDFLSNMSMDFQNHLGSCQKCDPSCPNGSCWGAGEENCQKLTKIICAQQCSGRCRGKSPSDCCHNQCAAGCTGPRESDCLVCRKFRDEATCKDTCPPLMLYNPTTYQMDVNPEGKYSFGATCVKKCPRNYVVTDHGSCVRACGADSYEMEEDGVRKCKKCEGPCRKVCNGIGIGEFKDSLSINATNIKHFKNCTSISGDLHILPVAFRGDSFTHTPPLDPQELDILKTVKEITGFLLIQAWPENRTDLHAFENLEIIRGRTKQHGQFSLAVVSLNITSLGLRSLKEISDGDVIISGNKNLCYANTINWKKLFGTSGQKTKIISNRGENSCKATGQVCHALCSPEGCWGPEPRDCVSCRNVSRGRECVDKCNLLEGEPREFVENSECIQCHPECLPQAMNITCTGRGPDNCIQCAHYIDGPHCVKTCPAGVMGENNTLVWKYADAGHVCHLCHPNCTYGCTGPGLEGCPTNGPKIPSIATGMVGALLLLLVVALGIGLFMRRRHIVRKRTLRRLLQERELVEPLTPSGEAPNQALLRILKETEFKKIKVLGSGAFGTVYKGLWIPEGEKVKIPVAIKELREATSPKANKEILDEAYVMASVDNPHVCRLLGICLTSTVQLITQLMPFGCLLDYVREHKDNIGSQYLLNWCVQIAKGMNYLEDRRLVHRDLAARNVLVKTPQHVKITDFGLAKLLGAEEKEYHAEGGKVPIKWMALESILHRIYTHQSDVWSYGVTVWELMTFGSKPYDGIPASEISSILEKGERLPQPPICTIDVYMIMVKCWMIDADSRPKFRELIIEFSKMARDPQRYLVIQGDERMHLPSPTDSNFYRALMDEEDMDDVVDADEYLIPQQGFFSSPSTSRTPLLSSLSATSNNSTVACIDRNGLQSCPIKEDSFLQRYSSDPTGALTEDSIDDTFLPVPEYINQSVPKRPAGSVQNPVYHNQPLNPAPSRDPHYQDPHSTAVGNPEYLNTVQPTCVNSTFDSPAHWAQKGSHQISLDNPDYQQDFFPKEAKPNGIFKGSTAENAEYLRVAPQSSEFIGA
# runParameters: at 0.1 µM
# Description: GSK_PKIS: EGFR mean inhibition at 0.1 uM [Nanosyn]
Record the value in %, omitting the unit from your answer.

Recorded results for 5 compounds are shown here.
Nc1nc(-c2cccc(Cl)c2)c(-c2ccc3ncccc3n2)s1; 0.13
CCn1c(-c2nonc2N)nc2c(C#CC(C)(C)O)nc(OC[C@H](N)c3ccccc3)cc21; 2.01
CS(=O)(=O)CCNCc1ccc(-c2ccc3ncnc(Nc4ccc(OCc5ccccc5)c(C(F)(F)F)c4)c3c2)o1; 12.5
COc1cc(/C=N/Nc2ncnc3[nH]ncc23)ccc1O; 2.77
COc1cccc(-n2ncc3c(N/N=C/c4ccc(F)cc4)ncnc32)c1; 0.53

Query :: Quick check: inhibition of Cc1ccc(O)cc1Nc1ccnc2cc(-c3ccccn3)ccc12 ?
Result :: 57.7

Query :: Moving on to CNC(=O)c1cccc(C#Cc2cncnc2Nc2ccc(OCc3cccc(F)c3)c(Cl)c2)c1
Result :: 62.1

Query :: Moving on to CCN(CC)S(=O)(=O)c1ccc(OC)c(Nc2ncc(-c3ccccc3)o2)c1
Result :: 3.51

Query :: Moving on to CCc1nn2ncccc2c1-c1ccnc(NC2CC2)n1
Result :: 2.78

Query :: Moving on to CN1CCC(n2cnc(-c3ccc(F)cc3)c2-c2ccnc(N)n2)CC1
Result :: 5.7

Query :: Moving on to Clc1ccc(-c2nn3ncccc3c2-c2ccnc(Nc3ccccc3)n2)cc1
Result :: 13.2

Query :: Moving on to CCn1cc(-c2ccnc3[nH]ccc23)c(-c2cccc(NC(=O)Nc3ccc(OCc4ccccc4)cc3)c2)n1
Result :: -1.36

Query :: Moving on to COc1cc(Nc2nccc(Nc3ccc4c(C)n[nH]c4c3)n2)cc(OC)c1OC
Result :: 8
